Numbers sourced from paper PMC12064818.

# subject-of-test: FLuc-C-HiBiT (firefly luciferase) (Photinus pyralis, UniProt P08659, form not given/L550V)
# Sequence (P08659 2-550 L550V, form open): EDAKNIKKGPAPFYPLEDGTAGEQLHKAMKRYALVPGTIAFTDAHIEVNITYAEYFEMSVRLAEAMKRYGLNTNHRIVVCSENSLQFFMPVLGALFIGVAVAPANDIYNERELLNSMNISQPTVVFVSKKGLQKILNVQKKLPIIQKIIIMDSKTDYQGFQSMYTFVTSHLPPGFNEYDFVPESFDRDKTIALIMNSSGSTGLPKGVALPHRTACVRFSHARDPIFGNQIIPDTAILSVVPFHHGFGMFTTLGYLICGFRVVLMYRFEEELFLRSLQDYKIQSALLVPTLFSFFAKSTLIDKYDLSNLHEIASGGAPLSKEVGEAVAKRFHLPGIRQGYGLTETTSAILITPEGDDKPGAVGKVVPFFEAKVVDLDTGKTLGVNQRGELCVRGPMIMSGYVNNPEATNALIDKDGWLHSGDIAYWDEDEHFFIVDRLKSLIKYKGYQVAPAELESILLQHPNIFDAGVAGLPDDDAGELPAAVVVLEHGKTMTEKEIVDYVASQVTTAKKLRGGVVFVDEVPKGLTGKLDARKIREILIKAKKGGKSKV
# measurement-description: Firefly luciferase (FLuc) enzymatic luminescence assay, FLuc-C-HiBiT
# Assay type: biochemical
# Set-up: key: % normalized; no enzyme control = 100% inhibition, DMSO = 0
# test-conditions: sheet Figure 1g (values as in Figure 1f); normalized activity; Log [Compound], M -5.91
Entries and their measured FLuc Enzyme follow.

compound	FLuc Enzyme
O=C(O)CCSc1nnc(-c2ccc(Cl)cc2Cl)o1 [compound 00103142]	-67.1
COc1ccc(-c2nc(-c3ccc(C(=O)O)cc3)no2)cc1 [compound 00168104]	-85.2
CC1CCCN(c2ncnc3c2cnn3-c2ccccc2)C1 (centres unmarked) [compound 00081381]	-71.2
Cc1ccc(-n2ncc3c(N4CCCCCC4)ncnc32)cc1 [compound 00139018]	-85.3
CNC(=O)c1cccc2c1CCN2C(=O)Nc1ccc(C)cc1 [compound 00430160]	-87.2
